# targetDesc: T1, 4H730-bA
# T1 chain: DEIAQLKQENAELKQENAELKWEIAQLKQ
# procedureSummary: two-hybrid library CCNG1;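 note: natural log of median RNA to DNA barcode read ratio; higher means stronger binding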
Please use the following interaction score ranges when assigning a class: low band (below -1), middle band (-1 to below -0.5), high band (-0.5 or more)

**Q:** # classify by interaction score band: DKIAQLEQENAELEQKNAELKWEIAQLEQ [4H2233-bA]
**A:** low band

**Q:** # classify by interaction score band: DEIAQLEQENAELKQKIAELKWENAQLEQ [4H235-bA]
**A:** middle band

**Q:** # classify by interaction score band: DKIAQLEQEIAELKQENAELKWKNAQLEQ [4H2143-bA]
**A:** middle band

**Q:** # classify by interaction score band: DEIAQLEQEIAELEQKNAELEWKNAQLKQ [4H56-bA]
**A:** low band

**Q:** # classify by interaction score band: DKIAQLKQKNAELKQKIAELEWEIAQLEQ [4H3041-bA]
**A:** low band

**Q:** # classify by interaction score band: DKIAQLKQEIAELEQENAELKWEIAQLEQ [4H2585-bA]
**A:** low band

**Q:** # classify by interaction score band: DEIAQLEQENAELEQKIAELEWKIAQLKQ [4H166-bA]
**A:** middle band

**Q:** # classify by interaction score band: DKIAQLKQENAELKQEIAELEWKNAQLKQ [4H2760-bA]
**A:** high band

**Q:** # classify by interaction score band: DEIAQLKQENAELKQENAELKWEIAQLKQ [4H730-bA]
**A:** high band

**Q:** # classify by interaction score band: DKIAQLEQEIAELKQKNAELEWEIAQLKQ [4H2162-bA]
**A:** high band

**Q:** # classify by interaction score band: DEIAQLEQKIAELEQEIAELEWKNAQLKQ [4H264-bA]
**A:** low band

**Q:** # classify by interaction score band: DKIAQLKQKIAELEQKIAELKWENAQLEQ [4H2859-bA]
**A:** low band
